System: human STING pathway in THP1-ISG cells
MEASUREMENT_DESCRIPTION: STING human cell reporter assay
Format: cell-based
CONDITION_LABEL: IRF-inducible SEAP reporter, 24 h
VALUE_TYPE: EC50 (µM)

Nc1ncnc2c1ncn2[C@@H]1O[C@@H]2CNS(=O)(=O)O[C@H]3C[C@H](n4cnc5c(=O)[nH]ncc54)O[C@@H]3COP(=O)(O)O[C@H]2[C@H]1F [Compound 43] : 0.73

1. Nc1ncnc2c1ncn2[C@@H]1O[C@@H]2CO[P@@](=O)(S)O[C@H]3[C@@H](F)[C@H](n4cnc5c(=O)[nH]cnc54)O[C@@H]3CNS(=O)(=O)O[C@H]2[C@H]1F (single isomer, unassigned) [Compound 31-R]
2. Nc1ncnc2c1ncn2[C@@H]1O[C@@H]2COP(=O)(O)O[C@H]3C[C@H](n4cnc5c(N)ncnc54)O[C@@H]3CNS(=O)(=O)O[C@H]2[C@H]1F [Compound 6]
3. Nc1ncnc2c1ncn2[C@@H]1O[C@@H]2CNS(=O)(=O)O[C@H]3C[C@H](n4nnc5c(=O)[nH]cnc54)O[C@@H]3COP(=O)(O)O[C@H]2[C@H]1F [Compound 42]
4. Nc1ncnc2c1ncn2[C@@H]1O[C@@H]2CNS(=O)(=O)O[C@H]3[C@@H](F)[C@H](n4cnc5c(=O)[nH]cnc54)O[C@@H]3CO[P@](=O)(S)O[C@H]2[C@H]1F [Compound 17-S]
Query: Exam item: list the entries in increasing order of EC50. Show the ranking through the labels, in the order asked for.
Result: 1, 2, 4, 3

---

Reported EC50 by item:
Test system: human STING pathway in THP1-ISG cells
MEASUREMENT_DESCRIPTION: STING human cell reporter assay
Type: cell-based
CONDITION_LABEL: IRF-inducible SEAP reporter, 24 h

Consider the reported EC50 for these compounds:
COc1ccc(CO[C@@H]2[C@@H]3OS(=O)(=O)NC[C@H]4O[C@@H](n5cnc6c(N)ncnc65)[C@H](F)[C@@H]4OP(=O)(O)OC[C@H]3O[C@H]2n2cnc3c(N)ncnc32)cc1 : > 100000 nM
Nc1ncnc2c1ncn2[C@@H]1O[C@@H]2CNS(=O)(=O)O[C@H]3C[C@H](n4ncc5c(=O)[nH]cnc54)O[C@@H]3COP(=O)(O)O[C@H]2[C@H]1F : > 100000 nM
Nc1ncnc2c1ncn2[C@@H]1O[C@@H]2CNS(=O)(=O)O[C@H]3C[C@H](n4cc(F)c5c(N)ncnc54)O[C@@H]3COP(=O)(O)O[C@H]2[C@H]1F : > 100000 nM
Nc1nc2c(ncn2[C@@H]2O[C@@H]3CO[P@](=O)(S)O[C@H]4[C@@H](O)[C@H](n5cnc6c(N)ncnc65)O[C@@H]4CNS(=O)(=O)O[C@H]3[C@H]2F)c(=O)[nH]1 : > 100000 nM
Nc1ncnc2c1ncn2[C@@H]1O[C@@H]2CNS(=O)(=O)O[C@H]3[C@H]4OO[C@]3(CO[P@](=O)(S)O[C@H]2[C@H]1F)O[C@H]4n1cnc2c(N)ncnc21 : 640 nM

Query: Which EC50 is listed for `Nc1ncnc2c1ncn2[C@@H]1O[C@@H]2CNS(=O)(=O)O[C@H]3[C@H]4OO[C@]3(CO[P@@](=O)(S)O[C@H]2[C@H]1F)O[C@H]4n1cnc2c(N)ncnc21` ?
Result: 880 nM

Query: And the next one, `Nc1nc2c(ncn2[C@@H]2O[C@@H]3COP(=O)(O)O[C@H]4[C@@H](F)[C@H](n5cnc6c(N)ncnc65)O[C@@H]4CNS(=O)(=O)O[C@H]3[C@H]2OCc2ccccc2)c(=O)[nH]1` ?
Result: > 100000 nM

Query: And the next one, Nc1ncnc2c1ncn2[C@@H]1O[C@@H]2CNS(=O)(=O)O[C@H]3[C@@H](F)[C@H](n4cnc5c(N)ncnc54)O[C@@H]3CO[P@](=O)(S)O[C@H]2[C@H]1F (single isomer, unassigned) [Compound 3] ?
Result: 540 nM
